Recorded pEC50 by entry
# system: human parathyroid cell Ca2+ receptor (hPCaR) (Homo sapiens, UniProt P41180)
# Sequence (P41180 20-1078): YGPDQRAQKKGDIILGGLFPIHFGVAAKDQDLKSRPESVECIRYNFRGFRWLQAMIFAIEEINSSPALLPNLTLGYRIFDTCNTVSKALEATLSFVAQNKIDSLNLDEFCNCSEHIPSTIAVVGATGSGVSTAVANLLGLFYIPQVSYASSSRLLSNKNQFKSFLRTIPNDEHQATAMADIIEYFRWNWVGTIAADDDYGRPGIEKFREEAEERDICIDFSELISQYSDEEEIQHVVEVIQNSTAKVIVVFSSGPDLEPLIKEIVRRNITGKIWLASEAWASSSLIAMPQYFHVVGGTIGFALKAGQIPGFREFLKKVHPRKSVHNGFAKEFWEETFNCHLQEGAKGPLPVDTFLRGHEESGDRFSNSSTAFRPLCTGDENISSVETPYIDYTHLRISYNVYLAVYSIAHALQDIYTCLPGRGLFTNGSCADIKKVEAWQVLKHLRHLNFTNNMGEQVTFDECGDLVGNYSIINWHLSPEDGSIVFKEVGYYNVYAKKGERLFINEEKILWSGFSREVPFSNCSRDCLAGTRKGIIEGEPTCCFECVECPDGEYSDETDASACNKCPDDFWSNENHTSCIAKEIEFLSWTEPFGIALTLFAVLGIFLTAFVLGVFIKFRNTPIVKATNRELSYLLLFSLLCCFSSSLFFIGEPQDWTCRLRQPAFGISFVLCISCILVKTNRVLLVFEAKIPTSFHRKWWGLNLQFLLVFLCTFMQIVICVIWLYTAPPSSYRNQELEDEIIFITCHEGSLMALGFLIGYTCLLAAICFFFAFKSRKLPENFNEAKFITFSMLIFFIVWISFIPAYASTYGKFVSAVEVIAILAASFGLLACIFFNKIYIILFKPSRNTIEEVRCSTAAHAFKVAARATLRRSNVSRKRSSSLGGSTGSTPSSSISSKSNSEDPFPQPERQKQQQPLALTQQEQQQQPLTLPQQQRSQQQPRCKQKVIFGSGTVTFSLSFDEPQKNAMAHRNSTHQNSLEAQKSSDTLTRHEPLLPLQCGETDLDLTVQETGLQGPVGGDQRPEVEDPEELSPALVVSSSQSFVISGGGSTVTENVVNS
# test-method-notes: [Ca2+]i fluorescence assay in HEK 293 4.0-7 cells expressing hPCaR
# test-parameters: buffer with 1 mM CaCl2
# Method: The activities of the compounds of the present invention on calcium receptors were measured. […] A 4.0-kb NotI-HindIII fragment of the human parathyroid cell Ca^2+ receptor (hPCaR) cDNA was subcloned into the mammalian expression vector pCEP4 (Invitrogen) containing the hygromycin-resistant gene as a selectable marker. […] Each test compound was added to the cells and the fluorescence was recorded by using excitation and emission wavelengths of 485 and 530 nm, respectively.
pEC50: −log10 of the molar value.

## Task Item O=C(CCCN(CCC(c1ccccc1)c1ccccc1)C(=O)Nc1nc2ccccc2s1)N[C@@H]1CCCNC1 has what recorded pEC50?
## Result > 7.00

## Task Param item: CC(C)(C)OC(=O)N1CCN(C(=O)CCCN(CCC(c2ccccc2)c2ccccc2)C(=O)Nc2nc3ccccc3s2)CC1
## Result 6.00 to 7.00

## Task Entry CC(C)(C)OC(=O)NCCN(CCC(c1ccccc1)c1ccccc1)C(=O)Nc1nc2ccccc2s1 please
## Result 6.00 to 7.00

## Task And for CS(=O)(=O)Nc1ccc(-c2csc(NC(=O)N(CCC(N)=O)CCC(c3ccccc3)c3ccccc3)n2)cc1 ?
## Result > 7.00

## Task And for CS(=O)(=O)Nc1ccc(-c2csc(NC(=O)N(CCC(=O)O)CCC(c3ccccc3)c3ccccc3)n2)cc1 ?
## Result 6.00 to 7.00

## Task Similarly, CN(C)C(=O)CCCN(CCC(c1ccccc1)c1ccccc1)C(=O)Nc1nc2ccccc2s1 ?
## Result > 7.00

## Task Entry O=C(O)CCCN(CCC(c1ccccc1)c1ccccc1)C(=O)Nc1nc(-c2ccccc2)cs1 please
## Result 6.00 to 7.00
